Experiment: qHTS Screen of the MIPE 4.0 Collection Against Ewings Sarcoma (TC32) (AID 1259256); further: nearly all actives have a fitted effect of over 45% in size; further: potency means the concentration at half of the fitted maximal effect
Settings: TC32 Ewing sarcoma viability, CellTiter-Glo, 48 h; series mostly up to 45.8 µM
Inconclusive results are not listed. The source made the active and inactive calls. The call rests on the fitted dose curve; in most records, active means well fitted inhibition curve with a large enough effect; inconclusive means small, poorly fitted or top-dose-only effect; inactive means no such curve, though single readings can be large or run the other way.
MEASURED QUANTITY: Potency

Some entries whose results are on file:
MOLECULE: CC(=O)O[C@H]1C(=O)[C@@]2(C)C([C@H](OC(=O)c3ccccc3)[C@]3(O)C[C@H](OC(=O)[C@H](O)[C@@H](NC(=O)c4ccccc4)c4ccccc4)C(C)=C1C3(C)C)[C@]1(OC(C)=O)CO[C@@H]1C[C@@H]2O (stereo partly specified)
Potency: inactive
//
MOLECULE: S=c1nc[nH]c2nc[nH]c12
Potency: 3320 nM (active)
//
MOLECULE: CN(C)C(=O)COC(=O)Cc1ccc(OC(=O)c2ccc(N=C(N)N)cc2)cc1
Potency: 46.9 nM (active)
//
MOLECULE: CC(C)(S)[C@@H](N)C(=O)O
Potency: inactive
//
MOLECULE: CCc1nc(N)nc(N)c1-c1ccc(Cl)cc1
Potency: 2640 nM (active)

Data request: Entry under review: O=Nc1c(-c2c(O)[nH]c3cc(Br)ccc23)[nH]c2ccccc12 . Reported Potency?
Data returned: 4180 nM (active)

---

System: HeLa
Assay: Primary qHTS to identify gynecologic anti-cancer compounds using libraries of approved drugs and bioactive compounds (AID 1345084); further: nearly all actives have a fitted effect of over 55% in size
Settings: Gynecologic cancer cell panel viability, ATPlite luminescence, 48 h; series mostly up to 57.5 µM
Records with an inconclusive call do not appear. Activity calls are given as the source filed them. The call rests on the fitted dose curve; in most records, active means well fitted cell-killing curve with a large enough effect; inconclusive means small, poorly fitted or top-dose-only effect, or effect the other way; inactive means flat fitted curve, though single readings scatter.
Use one of these outcomes when replying: active, inactive

Worked examples follow.
COMPOUND: CC[C@]1(O)C[C@H]2CN(CCc3c([nH]c4ccccc34)[C@@](C(=O)OC)(c3cc4c(cc3OC)N(C=O)[C@H]3[C@@](O)(C(=O)OC)[C@H](OC(C)=O)[C@]5(CC)C=CCN6CC[C@]43[C@@H]65)C2)C1
LABEL: active

COMPOUND: CC(C)Oc1ccc2c(=O)c(-c3ccccc3)coc2c1
LABEL: active

COMPOUND: Cc1c(OCC(F)(F)F)ccnc1CS(=O)c1nc2ccccc2[nH]1 (stereo unspecified)
LABEL: inactive

Data request: Recorded test outcome, item Cc1cc(C2CCCCC2)n(O)c(=O)c1
Data returned: inactive

Data request: Item: N[C@@H](Cc1cc(I)c(Oc2cc(I)c(O)c(I)c2)c(I)c1)C(=O)O
Data returned: inactive

Data request: Item: CC(C)C[C@H](NC(=O)[C@H](Cc1ccccc1)NC(=O)c1cnccn1)B(O)O
Data returned: active

---

Experiment: Cellular Toxicity (caspase-3) Jurkat (AID 655);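 further: cells exposed to compound for 16 h at 37 °C before reading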
Details: Jurkat caspase-3 activation, luminescence; series mostly up to 92.2 µM
Records with an inconclusive call do not appear. The source made the active and inactive calls. The call rests on the fitted dose curve; in most records, active means well fitted activation curve with a large enough effect; inconclusive means small, poorly fitted or top-dose-only effect; inactive means flat fitted curve, though single readings scatter.
Use one of these outcomes when replying: Yes = active, No = inactive

Worked examples follow.
COMPOUND: CC(=O)Nc1ccc(O)cc1
LABEL: No

COMPOUND: Cc1ccc(C)c(OCCCC(C)(C)C(=O)O)c1
LABEL: No

COMPOUND: CS(=O)(=O)OCCCCOS(C)(=O)=O
LABEL: No

Data request: Recorded test outcome, item Cc1cc(O)c2c(c1)C(=O)c1cc(O)cc(O)c1C2=O
Data returned: No

---

Experiment: Tertiary RLuc qRT-PCR qHTS assay for Zika virus inhibitors (AID 1347169); further: nearly all actives have a fitted effect of over 55% in size; further: potency means the concentration at half of the fitted maximal effect
Conditions: infected Vero cells, reporter luminescence, 48-72 h; series mostly up to 45.9 µM
Records with an inconclusive call do not appear. The source made the active and inactive calls. Calls follow the shape of the dose curve; as a rule, active = well fitted inhibition curve with a large enough effect; inconclusive = small, poorly fitted or top-dose-only effect; inactive = no such curve, though single readings can be large or run the other way.
MEASURED QUANTITY: Potency

Some entries whose results are on file:
MOLECULE: S=c1nc[nH]c2nc[nH]c12
Potency: 20800 nM (active)
--
MOLECULE: CC(C)C[C@H](NC(=O)[C@H](Cc1ccccc1)NC(=O)c1cnccn1)B(O)O
Potency: 37 nM (active)
--
MOLECULE: Cc1nc(Nc2ncc(C(=O)Nc3c(C)cccc3Cl)s2)cc(N2CCN(CCO)CC2)n1
Potency: 224 nM (active)
--
MOLECULE: O=C(O)c1cn(-c2ccc(F)cc2)c2cc(N3CCNCC3)c(F)cc2c1=O
Potency: inactive
--
MOLECULE: COc1cc2c(cc1OC)C1CC(=O)C(CC(C)C)CN1CC2 (stereo not drawn)
Potency: inactive

Data request: Entry under review: O=c1c(O)c(-c2ccc(O)cc2O)oc2cc(O)cc(O)c12 . Reported Potency?
Data returned: inactive

Data request: Item: Cc1nc(-c2ccc(OCC(C)C)c(C#N)c2)sc1C(=O)O
Data returned: inactive

Data request: Item: CN(C)C(=O)[C@H](O)[C@H](Cc1ccccc1)NC(=O)c1cc2cc(Cl)ccc2[nH]1
Data returned: inactive

---

Assay: Cellular Toxicity (caspase-3) Renal Proximal Tubule (AID 667);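 further: cells exposed to compound for 16 hours at 37 °C before detection; 0% = DMSO basal and 100% = 10 µM staurosporine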
Conditions: renal proximal tubule cells, primary cells freshly taken from rat, solvent-only wells 0%, staurosporine 100%; series mostly up to 91.7 µM
Description: NIH Chemical Genomics Center [NCGC] NIH Molecular Libraries Screening Centers Network [MLSCN] National Institutes of Environmental Health Sciences [NIEHS] National Toxicology Program [NTP] We have developed a 1536-well cell-based assay for quantitative high throughput screening (qHTS) against a number of cell lines to determine in vitro caspase 3/7 activity of small molecules. […] 8. Detection; Luminescence; Viewlux plate reader […]
Active and inactive are the calls of the source. The call rests on the fitted dose curve; in most records, active means well fitted activation curve with a large enough effect; inconclusive means small, poorly fitted or top-dose-only effect, or effect the other way; inactive means flat fitted curve, though single readings scatter. Peptide text beside a SMILES is read from it.
MEASURED QUANTITY: outcome

Some entries whose results are on file:
COMPOUND: CS(=O)(=O)OCCCCOS(C)(=O)=O
RESULT: inactive
//
COMPOUND: Cc1cc(O)c2c(c1)C(=O)c1cc(O)cc(O)c1C2=O
RESULT: inactive
//
COMPOUND: Cc1ccc(C)c(OCCCC(C)(C)C(=O)O)c1
RESULT: inactive
//
COMPOUND: CCCc1cc(=O)[nH]c(=S)[nH]1
RESULT: inactive
//
COMPOUND: COC(=O)[C@H](Cc1ccccc1)NC(=O)[C@@H](N)CC(=O)O (H-Asp-Phe-OMe)
RESULT: inactive

From here, focus on the item given below.
Data request: Entry under review: COc1c2occc2cc2ccc(=O)oc12 . Reported outcome?
Data returned: inactive

---

Test: qHTS Screen of the MIPE 4.0 Collection Against Ewings Sarcoma (EW8) (AID 1259255); further: nearly all actives have a fitted effect of over 35% in size; further: potency means the concentration at half of the fitted maximal effect;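 on viability: 100% = DMSO-treated cells and 0% = medium-only wells without cells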
Settings: EW8 Ewing sarcoma viability, CellTiter-Glo, 48 h; series mostly up to 45.8 µM
Records with an inconclusive call do not appear. Calls of active or inactive are those of the source. The call rests on the fitted dose curve; in most records, active means well fitted inhibition curve with a large enough effect; inconclusive means small, poorly fitted or top-dose-only effect; inactive means no such curve, though single readings can be large or run the other way.
MEASURED QUANTITY: Potency

Some entries whose results are on file:
COMPOUND: CCOc1cc(CC(=O)N[C@@H](CC(C)C)c2ccccc2N2CCCCC2)ccc1C(=O)O
Potency: inactive

COMPOUND: Cc1cccc(C#Cc2ccccc2)n1
Potency: 18.7 µM (active)

COMPOUND: CCCCN(CCCC)CCC(O)c1cc2c(Cl)cc(Cl)cc2c2cc(C(F)(F)F)ccc12 (stereo unspecified)
Potency: inactive

COMPOUND: O=C(CS(=O)Cc1ccco1)NCC=CCOc1cc(CN2CCCCC2)ccn1 (stereo unspecified)
Potency: inactive

COMPOUND: NNc1nncc2ccccc12
Potency: inactive

From here, focus on the item given below.
Data request: Entry under review: Cc1c(C(=O)NN2CCCCC2)nn(-c2ccc(Cl)cc2Cl)c1-c1ccc(Cl)cc1 . Reported Potency?
Data returned: 26.4 µM (active)

---

Assay: qHTS of pediatric cancer cell lines to identify multiple opportunities for drug repurposing: Primary screen for RD cells (AID 1347104); further: nearly all actives have a fitted effect of over 55% in size
Conditions: RD rhabdomyosarcoma viability, CellTiter-Glo luminescence, 48 h; series mostly up to 46 µM
Inconclusive results are not listed. Activity calls are given as the source filed them. The call rests on the fitted dose curve; in most records, active means well fitted cell-killing curve with a large enough effect; inconclusive means small, poorly fitted or top-dose-only effect; inactive means flat fitted curve, though single readings scatter.
Use one of these outcomes when replying: class 1 (active), class 0 (inactive)

Worked examples follow.
COMPOUND: O=c1c(O)c(-c2cc(O)c(O)c(O)c2)oc2cc(O)cc(O)c12
LABEL: class 0
//
COMPOUND: Cc1cc(Cl)ccc1OCCCC(=O)NO
LABEL: class 1
//
COMPOUND: CC(=O)NC[C@H]1CN(c2ccc(N3CCOCC3)c(F)c2)C(=O)O1
LABEL: class 0

Data request: Recorded test outcome, item O=C1c2c(O)cc(O)cc2OC(c2ccc(O)c(O)c2)C1O (stereo not given)
Data returned: class 0

Data request: Item: CN(c1nccc(=O)[nH]1)C1CCN(c2nc3ccccc3n2Cc2ccc(F)cc2)CC1
Data returned: class 0

---

Experiment: Quantitative High-Throughput drug screen in 47 multiple myeloma cell lines against the NCATS MIPE library collection: SKMM1_PLB cell viability assay (AID 1919863); further: potency means the concentration at half of the fitted maximal effect; nearly all actives have a fitted effect of over 35% in size
Conditions: SKMM1 myeloma viability, CellTiter-Glo ATP, 48 h
Inconclusive results are not listed. Active and inactive are the calls of the source. Calls come from the whole dose curve; as a rule, active = well fitted cell-killing curve with a large enough effect; inconclusive = small, poorly fitted or top-dose-only effect, or effect the other way; inactive = no such curve, though single readings can be large or run the other way.
Each record here notes measured Potency.

Data request: Entry under review: CC(C)C[C@H](NC(=O)[C@H](Cc1ccccc1)NC(=O)c1cnccn1)B(O)O . Reported Potency?
Data returned: 0.0372 µM (active)

Data request: Item: C[C@H](Cc1ccc(O)c(O)c1)[C@@H](C)Cc1ccc(O)c(O)c1
Data returned: 18.7 µM (active)

Data request: Item: Oc1ccc(OCc2ccccc2)cc1
Data returned: 7.43 µM (active)

Data request: Item: O=C(NOCC1CC1)c1ccc(F)c(F)c1Nc1ccc(I)cc1Cl
Data returned: 20.9 µM (active)

Data request: Item: CCN(CC)CCOc1ccc(Nc2ncc3cc(-c4c(Cl)cccc4Cl)c(=O)n(C)c3n2)cc1
Data returned: 5.26 µM (active)

Data request: Item: Nc1ncn([C@H]2C[C@H](O)[C@@H](CO)O2)c(=O)n1
Data returned: 5.9 µM (active)
